Target: ABCD2 WT (Homo sapiens)
Sequence (Q9UBJ2 whole entry): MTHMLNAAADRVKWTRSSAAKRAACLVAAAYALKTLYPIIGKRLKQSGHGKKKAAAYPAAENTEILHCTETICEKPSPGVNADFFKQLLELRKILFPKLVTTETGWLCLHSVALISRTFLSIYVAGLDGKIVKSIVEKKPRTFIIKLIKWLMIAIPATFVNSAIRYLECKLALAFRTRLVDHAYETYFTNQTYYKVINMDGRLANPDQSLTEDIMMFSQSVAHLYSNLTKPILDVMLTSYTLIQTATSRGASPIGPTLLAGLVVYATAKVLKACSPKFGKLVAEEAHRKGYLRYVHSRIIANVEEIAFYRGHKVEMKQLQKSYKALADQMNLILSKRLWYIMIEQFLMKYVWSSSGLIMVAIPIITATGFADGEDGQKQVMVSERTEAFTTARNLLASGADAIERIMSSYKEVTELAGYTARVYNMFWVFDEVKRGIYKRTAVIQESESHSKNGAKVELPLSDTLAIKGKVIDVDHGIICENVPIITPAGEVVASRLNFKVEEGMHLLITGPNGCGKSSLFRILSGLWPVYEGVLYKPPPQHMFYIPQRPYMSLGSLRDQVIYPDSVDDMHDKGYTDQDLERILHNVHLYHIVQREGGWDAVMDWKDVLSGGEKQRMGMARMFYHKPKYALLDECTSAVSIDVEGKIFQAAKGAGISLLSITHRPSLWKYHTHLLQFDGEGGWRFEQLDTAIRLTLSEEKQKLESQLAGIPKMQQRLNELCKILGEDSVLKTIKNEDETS
Assay: D2 correction dose-response assay: ABCD2 WT HiBit protein expression
Conditions: HEK-293/ABCD2 WT cells, 24 hours treatment, HiBit luminescence; class combines EC50 and Mean MaxAct (fold); read-out: ABCD2 WT EC50, Emax
pEC50: −log10 of the molar value.
Would you kindly list pEC50 for each of these compounds?

Prompt line: Retrieve pEC50 measured for COC1CC(NS(=O)(=O)c2ccc(-c3cncc(Cl)c3)nc2Oc2c(C)cc(C)cc2C)C1 (stereo not shown) and print it.
Response line: 5.00 to 6.00

Prompt line: Retrieve pEC50 measured for Cc1cc(C)c(Oc2nc(-c3cncc(C#N)c3)ccc2S(=N)(=O)C2CC2)c(C)c1 (stereo not shown) and print it.
Response line: > 6.00

Prompt line: Retrieve pEC50 measured for "Cc1cc(C)c(Oc2nc(N3CCN(C(=O)C4CC4)CC3)ccc2S(N)(=O)=O)c(C)c1" and print it.
Response line: 4.60 to 5.00

Prompt line: Retrieve pEC50 measured for "Cc1cc(Oc2nc(-c3cncc(C#N)c3)ccc2NS(C)(=O)=O)c(C)nc1C(F)(F)F" and print it.
Response line: > 6.00

Prompt line: Retrieve pEC50 measured for "Cc1cc(C2CC2)nc(C)c1Oc1nc(-c2cncc(S(C)(=O)=O)c2)ccc1NS(C)(=O)=O" and print it.
Response line: 5.00 to 6.00

Prompt line: Retrieve pEC50 measured for "Cc1cc(C2CC2)nc(C2CC2)c1Oc1nc(-c2cncc(C#N)c2)ccc1S(=O)(=O)NC1CCOCC1" and print it.
Response line: < 4.60

Prompt line: Retrieve pEC50 measured for "Cc1cc(C)c(Oc2nc(-c3cncc(Cl)c3)ccc2S(=O)(=O)NC(C)(C)C)c(C)c1" and print it.
Response line: < 4.60

Prompt line: Retrieve pEC50 measured for "CNS(=O)(=O)c1ccc(-c2cncc(C#N)c2)nc1Oc1c(C)cc(C2CC2)nc1C1CC1" and print it.
Response line: 5.00 to 6.00

Prompt line: Retrieve pEC50 measured for "CNS(=O)(=O)c1ccc(-c2cncc(C#N)c2)nc1Oc1c(C)cc(C)nc1C" and print it.
Response line: 5.00 to 6.00

Prompt line: Retrieve pEC50 measured for Cc1cc(C(F)(F)F)nc(C2CC2)c1Oc1nc(-c2cncc(C#N)c2)ccc1S(=N)(=O)c1cccnn1 (stereo not shown) and print it.
Response line: > 6.00

Prompt line: Retrieve pEC50 measured for "Cc1cc(C)c(Oc2nc(-c3cncc(Cl)c3)ccc2NS(=O)(=O)c2cnn(C)c2)c(C2CC2)c1" and print it.
Response line: < 4.60

Prompt line: Retrieve pEC50 measured for "Cc1cc(C2CC2)nc(C)c1Oc1nc(-c2cncc(Cl)c2)ccc1NS(=O)(=O)C1COC1" and print it.
Response line: > 6.00

Prompt line: Retrieve pEC50 measured for "Cc1cc(C(F)(F)F)nc(C)c1Oc1nc(-c2cncc(C#N)c2)ccc1NS(=O)(=O)C1CC1" and print it.
Response line: 4.60 to 5.00

Prompt line: Retrieve pEC50 measured for "Cc1nc(C)c(Oc2nc(-c3cncc(C(F)F)c3)ccc2NS(C)(=O)=O)c(C)n1" and print it.
Response line: 4.60 to 5.00

Prompt line: Retrieve pEC50 measured for "Cc1cc(C)c(Oc2nc(-c3cncc(Cl)c3)ccc2NS(=O)(=O)C(C)C)c(C)c1" and print it.
Response line: < 4.60

Prompt line: Retrieve pEC50 measured for "Cc1cc(C)c(Oc2nc(-c3cncc(Cl)c3)ccc2S(=O)(=O)N(C)C)c(C)c1" and print it.
Response line: 5.00 to 6.00
